Ref: patent US20130230519A1

Please provide measured pKd for the entries that follow.
# assayedTarget: T1, mouse serum albumin (mouse, UniProt P07724 25-608)
# T1 construct: mature; Bought purified serum protein; also called MSA; mouse SA
# method: SPR (BIAcore), purified dAb
One number for each entry, as −log10 of the molar value.

Please review the following examples before continuing.
DOM7h-14-82 (other, pDOM5 myc tag not included) VL: DIQMTQSPSSLSASVGDRVTITCRASQWIGSQLSWYQQKPGKAPKLLIMWRSSLQSGVPSRFSGSGSGTDFTLTISSLQPEDFATYYCAQGMRHPKTFGQGTKVEIKW | 7.49
DOM7h-14-76 (other, pDOM5 myc tag not included) VL: DIQMTQSPSSLSASVGDRVTITCRASQWIGSQLSWYQQKPGKAPKLLIMWRSSLQSGVPSRFSGSGSGTDFTLTISSLQPEDFATYYCAQGLKHPKTYGQGTKVEIKW | 7.94
DOM7h-14-115 (other, pDOM5 myc tag not included) VL: DIQMTQSPSSLSASVGDRVTITCRASQWIGSQLSWYQQKPGKAPKLLIMWRSALQSGVPSRFSGSGSGTDFTLTISSLQPEDFATYYCAQGLRHPKTYGQGTKVEIKW | 8.01
DOM7h-14-101 (other, pDOM5 myc tag not included) VL: DIQMTQSPSSLSASVGDRVTITCRASQWIGSQLSWYQQKPGKAPKLLIMWRSALQNGVPSRFSGSGSGTDFTLTISSLQPEDFATYYCAQGLRHPKTFGQGTKVEIKW | 7.77
DOM7h-14-109 (other, pDOM5 myc tag not included) VL: DIQMTQSPSSLFASVGDRVTITCRASQWIGSQLSWYQQKPGKAPKLLIMWRSSLQSGVPSRFSGSGSGTDFTLTISSLQPEDFATYYCAQGLRKPKTFGQGTKVKIKW | 7.24

For every record below, what is its pKd?
1. DOM7h-14-100 (other, pDOM5 myc tag not included) VL: DIQMTQSPSSLSASVGDRVTITCRASQWIGSQLSWYQQKPGKAPKLLIMWRSSLQSGVPSRFSGSGSGTDFTLTISSLQPEDFATYYCAQGLRHPKTYGQGTKVENKW
2. DOM7h-14-10 (other, Vk dAb (AlbudAb); tag not included here) VL: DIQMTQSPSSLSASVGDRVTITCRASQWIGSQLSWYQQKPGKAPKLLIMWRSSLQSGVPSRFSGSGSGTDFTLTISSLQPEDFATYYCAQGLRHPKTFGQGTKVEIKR

1. 8.10
2. 7.52
